Tested on: Mus musculus
Test: Toxicity in ICR mouse implanted with mouse H22-H8D8 cells assessed as body weight at 20 mg/kg, iv (reference value: 29.89 to 33.78 g)
Assay type: organism-based
Settings: in vivo
Answer each item with its documented Activity.
Answer with a number only, understood to be in g.

Ask: Input N#CC1=C(N)Oc2c(N)cc3nc4ccccc4nc3c2C1c1ccc(Cl)c(Cl)c1 (stereo not given) , output reported Activity.
Reply: 35.22

Ask: Input CCOC(=O)C1=C(N)Oc2c(N)cc3nc4ccccc4nc3c2C1c1ccccc1Br (stereo not given) , output reported Activity.
Reply: 35.56

Ask: Input CCOC(=O)C1=C(N)Oc2c(N)cc3nc4ccccc4nc3c2C1c1cccc(Cl)c1Cl (stereo not given) , output reported Activity.
Reply: 40.33

Ask: Input N#CC1=C(N)Oc2c(N)cc3nc4ccccc4nc3c2C1c1ccc(Cl)cc1 (stereo not given) , output reported Activity.
Reply: 37.22

Source of measurements: ChEMBL document CHEMBL3992500
